# System: 454973-116-R2-J3-PDC spheroids, viability, % test/control;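 note: spheroids exposed to compounds for seven days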
# Procedure Summary: Anticancer human tumor 454973-116-R2-J3-PDC patient-derived pancreatic carcinoma cell line growth inhibition [GQUAD]
# Run Conditions: second compound 3.16 µM; first compound 3.16 µM; stronger effect = lower value; spheroids with HUVEC and MSC
# MET = viability, T/C below 30% (exclusive); NOT MET = viability, T/C at/above 30%

# Molecule, Class Label
measured = [
    ("COc1ccc([C@@H](O)c2cc(-c3ncnc4cc(N5CCOCC5)ccc34)c(F)cc2Cl)nn1 + Cc1[nH]c2ccc(F)cc2c1-c1nc2c3cccnc3c3ncccc3c2[nH]1", "NOT MET"),
    ("C=CC(=O)N1CCN(c2nc(=O)n(-c3c(C)ccnc3C(C)C)c3nc(-c4c(O)cccc4F)c(F)cc23)C(C)C1 (stereo not given) + Cc1cnc(CNC(=O)c2c(=O)c3ccc(N4CCCN(C)CC4)nc3n3c2sc2ccccc23)cn1", "NOT MET"),
    ("Nc1ccn(C2OC(CO)C(O)C2(F)F)c(=O)n1 (stereo not given) + Cc1cnc(CNC(=O)c2c(=O)c3ccc(N4CCCN(C)CC4)nc3n3c2sc2ccccc23)cn1", "NOT MET"),
    ("C=CCn1c(=O)c2cnc(Nc3ccc(N4CCN(C)CC4)cc3)nc2n1-c1cccc(C(C)(C)O)n1 + Cc1[nH]c2ccc(F)cc2c1-c1nc2c3cccnc3c3ncccc3c2[nH]1", "MET"),
    ("CC1COCCN1c1cc(C2(S(C)(=N)=O)CC2)nc(-c2ccnc3[nH]ccc23)n1 (stereo not given) + CN(C)c1ccc(Nc2c3ccc(NC(=O)CCN4CCCC4)cc3nc3cc(NC(=O)CCN4CCCC4)ccc23)cc1", "NOT MET"),
    ("C#Cc1c(F)ccc2cc(O)cc(-c3ncc4c(N5CC6CCC(C5)N6)nc(OCC56CCCN5CC(F)C6)nc4c3F)c12 (stereo not given) + Cc1cnc(CNC(=O)c2c(=O)c3ccc(N4CCCN(C)CC4)nc3n3c2sc2ccccc23)cn1", "MET"),
    ("COc1ncnc(C2CC2)c1-c1ncc2cnn(Cc3ccc(-c4nc(C(F)(F)F)cn4C(C)C)cc3)c2n1 + CN(C)c1ccc(Nc2c3ccc(NC(=O)CCN4CCCC4)cc3nc3cc(NC(=O)CCN4CCCC4)ccc23)cc1", "NOT MET"),
    ("CC(C)(O)C1CCC(Nc2ccc3ncc(-c4cccc(C(F)(F)F)c4)n3n2)CC1 (stereo not given) + CN(C)c1ccc(Nc2c3ccc(NC(=O)CCN4CCCC4)cc3nc3cc(NC(=O)CCN4CCCC4)ccc23)cc1", "MET"),
]

Incoming: Just wondering, is viability, T/C of COc1cccc2c1C(=O)c1c(O)c3c(c(O)c1C2=O)CC(O)(C(=O)CO)CC3OC1CC(N)C(O)C(C)O1 (stereo not given) + CN(C)c1ccc(Nc2c3ccc(NC(=O)CCN4CCCC4)cc3nc3cc(NC(=O)CCN4CCCC4)ccc23)cc1 below 30%?
Outgoing: MET

Incoming: What about this molecule? CC(=O)O[C@H]1C(=O)[C@@]2(C)[C@H]([C@H](OC(=O)c3ccccc3)[C@]3(O)C[C@H](OC(=O)[C@H](O)[C@@H](NC(=O)c4ccccc4)c4ccccc4)C(C)=C1C3(C)C)[C@]1(OC(C)=O)CO[C@@H]1C[C@@H]2O + Cc1cnc(CNC(=O)c2c(=O)c3ccc(N4CCCN(C)CC4)nc3n3c2sc2ccccc23)cn1
Outgoing: NOT MET

Source: PubChem BioAssay AID2060508
